These entries and their values trace back to ChEMBL document CHEMBL1201862.

- Test system: OVCAR-4
- Measurement Description: NCI tumour cell line growth inhibition, 48 h
Activity calls are given as the source filed them. Rule as the data show it: active = GI50 up to about 1.1 µM and inactive = higher.
Observation Type: GI50

>>> df
                                   molecule  observation_type               result
0  NC1=NS(=O)(=O)Nc2nc(-c3ccc([N+](=O)[O-])cc3)[nH]c21              GI50  > 100 µM (inactive)
1                    O=C1C2CCN(CC2)C1(CO)CO              GI50   19.4 µM (inactive)
2       c1ccc(/N=C2\c3ccccc3CN2c2ccccc2)cc1              GI50  > 100 µM (inactive)
3  COc1cccc(/C=N/n2c(Cc3ccccc3)n[nH]c2=O)c1              GI50  > 100 µM (inactive)
4     COc1cc(OC)c(OC)cc1/C=C\c1ccnc2ccccc12              GI50   4.51 µM (inactive)

I need GI50 for every entry listed below, if you could help.
1. Nc1ccn(C2CC(O)C(COP(=O)(S)OC3CC(n4ccc(N)nc4=O)OC3CO)O2)c(=O)n1 (stereo unspecified)
2. COC1=C(OC)C(=O)C(Cc2c(-c3ccccc3)nc3sc(Cl)cn23)=C(C)C1=O

> 100 µM (inactive)
3.61 µM (inactive)

I need GI50 for every entry listed below, if you could help.
1. O=C(CCN1CCN2c3ccccc3CCC2C1)c1ccc(F)cc1 (stereo unspecified)
2. O=S(OC12CC3CC(CC(C3)C1)C2)c1cc(Cl)cc(Cl)c1OCc1ccccc1 (stereo unspecified)
3. COc1ccc2oc(=N)c(C(=O)Nc3ccccn3)cc2c1
4. O=C1c2cc3c(cc2CC12Cc1cc4c(cc1C2)CCC4)CCC3

20 µM (inactive)
> 100 µM (inactive)
> 100 µM (inactive)
> 100 µM (inactive)

* * *

- System: KM12
- Measurement Description: NCI tumour cell line growth inhibition, 48 h
Activity calls are given as the source filed them. No stated cut-off is given here; in the data, active = GI50 up to about 1.1 µM and inactive = higher. Non-standard residues stand in square brackets, D forms with d. Residues, ends and D or L forms follow the SMILES beside them. *: point of attachment. X30 = COC1=CC(=O)N(C(=O)[C@@H](O*)C(C)C)[C@H]1Cc1ccccc1; NMeL = CN[C@@H](CC(C)C)C(=O)O; Cbz = O=C(OCc1ccccc1)*
Please answer using one outcome listed in 1.0 for active, 0.0 for inactive

Study these solved cases before continuing.
Compound	Category
CC1(C)OCN(c2ccc(N3CCOCC3)cc2)Cn2c1nc1ccccc12	0.0
CC(=O)NC1=C(C)C(=O)c2c(nc3n2CC[C@H]3OC(C)=O)C1=O	0.0
CC(=O)O/N=C/c1c2ccccc2cc2ccccc12	0.0
CC(C)(C)C(=O)c1c(O)c2ccccc2c2ccccc2c1=O	0.0

What classification did C=C1C(=O)C23C(O)C1CC[C@H]2C12CCCC(C)(COC(C)=O)[C@H]1[C@H](O)[C@]3(O)OC2 (stereo partly drawn) end up with in this test? 0.0

What classification did COC(=O)c1cnc(Cl)cn1 end up with in this test? 0.0

What classification did O=C(Nc1ccc(F)cc1)c1cc2c(cc1Cl)Sc1nccn1S2(=O)=O end up with in this test? 0.0

What classification did Cc1sc2ccccc2[n+]1CCC(=O)O end up with in this test? 0.0

What classification did COc1cc(C2c3cc4c(cc3OC(Nc3ccccc3)C2C)OCO4)cc(OC)c1OC (stereo not drawn) end up with in this test? 1.0

What classification did COC1=CC(=O)N(C(=O)[C@@H](OC(=O)[C@@H]2CCCN2C(=O)[C@@H]2CCCN2C(=O)[C@H](CC(C)C)N(C)C(=O)[C@@H](NC(=O)[C@@H](NC(=O)OCc2ccccc2)C(C)C)C(C)C)C(C)C)[C@H]1Cc1ccccc1 (Cbz-VV[NMeL]PP-X30) end up with in this test? 0.0

What classification did CCOC(=O)Nc1ccc(S(=O)(=O)I)cc1.CCOC(=O)Nc1ccc(S(=O)(=O)I)cc1.CN(C=O)C1=C(N(C)C=O)C(N(C)C=O)=C(N(C)C=O)C(=O)C1=O end up with in this test? 0.0

What classification did CCC[C@H](O)[C@@H](CNc1cc(NC(C)=O)nc(NC(C)=O)n1)N(Cc1ccccc1)Cc1ccccc1 end up with in this test? 0.0

What classification did CC(=O)Oc1ccc(O)c(O)c1C/C=C(\C)CC/C=C(\C)CC/C=C(\C)CCC=C(C)C end up with in this test? 1.0

What classification did Cc1cc(O)c2c(c1)C(=O)c1c(c(O)cc(O)c1-c1c(O)cc(O)c3c1C(=O)c1cc(C)cc(O)c1C3=O)C2=O end up with in this test? 0.0

What classification did Cc1ccc(S(=O)(=O)N/N=C\c2c3ccccc3[n+](C)c3ccccc23)cc1 end up with in this test? 0.0

What classification did COc1cccc2cc(C)c(C(=O)c3ccccc3)nc12 end up with in this test? 0.0

What classification did Cn1nc2ccc3nccc(N(CCO)CCO)c3c2n1 end up with in this test? 0.0

What classification did FC(F)(F)c1nc2ccc3[nH]c4c(-c5ccccc5)nccc4c3c2[nH]1 end up with in this test? 0.0
